Source listed as paper PMC5117808.

- TEST_SYSTEM: MdnC (ATP-grasp macrocyclase, microviridin J pathway, Microcystis aeruginosa MRC) (Microcystis aeruginosa MRC)
- ASSAY_OVERVIEW: ITC
No end group written: not given here.
OBSERVABLE: Kd (nM)
Answer format: numeric, nM implied, no suffix.

>>> assay_value("MAYPNDQQGKALPFFARFLSVSKEESSIKSPSPDH (not fully specified) [MdnA[1-35], leader peptide-only analog of MdnA]")
146

// switching to the query binder
# input Could you tell me which Kd is on file for GKALPFFARFLSVS (not fully specified) [MdnA[9-22], minimal peptide containing the conserved region of the leader peptide] ?
# output 308
